Tested on: SK-MEL-28 melanoma
assay_explanation: NCI tumour cell line growth inhibition, 48 h
Recorded measurements of TGI, one per entry

molecule: Cc1c(-c2ccc(O)c(O)c2)oc(=O)c2c(O)cc(O)cc12
TGI: > 100 µM
--
molecule: N#Cc1ccccc1C#C/C=C\C#Cc1cccs1
TGI: > 100 µM
--
molecule: COc1ccc(O)cc1C=O
TGI: > 100 µM
--
molecule: C=C[C@H]1CN2CCc3c([nH]c4cc(O)ccc34)[C@@H]2C[C@@H]1C[C@H]1c2[nH]c3ccccc3c2CCN1C
TGI: 3.27 µM
--
molecule: CCOC(=O)c1cnc2oc(-c3ccc(OC)cc3)nn2c1=O
TGI: > 100 µM
--
molecule: COc1ccc(Nc2nc(C#N)c(N)s2)cc1
TGI: > 100 µM
--
molecule: C[C@]12CC[C@H](O)C[C@@H]1CC[C@@H]1[C@@H]2CC[C@]2(C)[C@@H](c3cc(C(F)(F)F)n[nH]3)CC[C@@H]12
TGI: 26.9 µM
--
molecule: Clc1ccc(Cl)c(N=Nc2cc3c4c(c2)CCCN4CCC3)c1
TGI: > 10 µM
--
molecule: O=C(N/N=C\c1cc(Cl)ccc1O)c1ccncc1
TGI: > 100 µM
--
molecule: CCN1CC2(COC)C(O)CC(OC)C34C5CC6(O)C(OC)C=C(C5C6OC(=O)c5ccc(OC)c(OC)c5)C(C(OC)C23)C14 (stereo unspecified)
TGI: > 7.5 µM
--
molecule: COc1ccc(C(=O)NCCNc2nccc(-c3c(-c4ccc(F)cc4)nc4sccn34)n2)cc1
TGI: > 100 µM
--
molecule: N=C(c1ccc(-c2cn3cc(C(=N)N4CCCC4)ccc3n2)cc1)N1CCCC1
TGI: > 100 µM
--
molecule: CCN(CC)CCCNc1ccc2ncn3c4ccc(O)cc4c(=O)c1c23
TGI: 25.2 µM
--
molecule: Cc1ccc(S(=O)(=O)Oc2ccccc2-c2ccccc2)cc1
TGI: > 100 µM
--
molecule: COc1ccc(C(=O)C2C(C#N)C(C#N)C3C=Cc4ccccc4N32)cc1 (stereo unspecified)
TGI: > 100 µM
--
molecule: COC1CC(OC)C2OC(c3ccccc3)OCC2O1 (stereo unspecified)
TGI: > 100 µM
--
molecule: O=C(O)[C@@H]1CCCN1Cc1cc2cc3c(cc2c2cc(OCc4ccccc4)ccc12)OCO3
TGI: 43.9 µM
--
molecule: CCOC(=O)C1N(S(=O)(=O)c2ccc(C)cc2)CCC12C(c1ccc(OC)c(OC)c1)=Nc1ccccc12 (stereo unspecified)
TGI: > 100 µM
--
molecule: O=c1c2ccccc2sc2nc(CCl)nn12
TGI: 28.3 µM
--
molecule: C=C(CC[C@@H](C)[C@H]1CC[C@H]2[C@@H]3C[C@@H](O)[C@H]4C[C@@H](O)CC[C@]4(CO)[C@H]3CC[C@]12C)C(C)C
TGI: 10.3 µM
--
molecule: COc1ccc(C2C(Cl)C(=O)N2NC(=O)c2ccccc2O)cc1 (stereo unspecified)
TGI: > 100 µM

----------
System: SF-295 CNS
assay_explanation: NCI tumour cell line growth inhibition, 48 h
Recorded measurements of TGI, one per entry
metric: TGI (µM)

structure_smiles: COc1ccc(C(=O)NCCNc2nccc(-c3c(-c4ccc(F)cc4)nc4sccn34)n2)cc1
metric: TGI
bound_type: =
endpoint_value: 15.1
//
structure_smiles: CCN1C(Cl)=NS(=O)(=O)c2ccccc21
metric: TGI
bound_type: >
endpoint_value: 100
//
structure_smiles: O=S(=O)(/N=C(\NO)Nc1ccc(Cl)cc1)c1cc2ccccc2o1
metric: TGI
bound_type: =
endpoint_value: 47
//
structure_smiles: CCN(CCCl)CCCCNc1c2ccccc2nc2ccc(OC)cc12
metric: TGI
bound_type: =
endpoint_value: 3.64
//
structure_smiles: CC(C)(C)c1ccc(-n2c3nc(=O)n(-c4ccccc4C(F)(F)F)c(=O)c-3cc3ccccc32)cc1
metric: TGI
bound_type: =
endpoint_value: 60.5
//
structure_smiles: Cc1c(C(=N)N)oc2ccccc12
metric: TGI
bound_type: >
endpoint_value: 100

----------
System: MALME-3M melanoma
assay_explanation: NCI tumour cell line growth inhibition, 48 h
metric: TGI

compound: COc1cc(C2CC(C)(N3CCCC3)Oc3cc4c(cc32)OCO4)cc(OC)c1OC (stereo unspecified)
metric: TGI
endpoint_value: > 50.7 µM
--
compound: c1ccc(C[n+]2ccc3c(c2)CCCC3)cc1
metric: TGI
endpoint_value: > 100 µM
--
compound: CCCCCC/C=C\CCCCCCCCCc1cc(O)cc(OC)c1O
metric: TGI
endpoint_value: 2.14 µM
--
compound: CC(=O)NC1C(O)CC(OCCCSCCN)(C(=O)O)OC1C(O)C(O)CO (stereo unspecified)
metric: TGI
endpoint_value: > 100 µM
--
compound: Cc1ccc(NC(=O)CSc2nnc(Cc3ccccc3)o2)c(C)c1
metric: TGI
endpoint_value: > 100 µM
--
compound: C=CCN1C(=O)C(=O)N(CC=C)C(=O)C1=O
metric: TGI
endpoint_value: > 100 µM
--
compound: Nc1c(C(=O)Nc2ccccc2)sc2nc3c(cc12)C(O)CCC3 (stereo unspecified)
metric: TGI
endpoint_value: > 100 µM
--
compound: COc1ccc(C2C(Cl)C(=O)N2NC(=O)c2ccccc2O)cc1 (stereo unspecified)
metric: TGI
endpoint_value: > 100 µM
--
compound: Cc1noc(NS(=O)(=O)c2ccc(NC(=O)c3ccc4[nH]c5ccccc5c(=O)c4c3)cc2)c1C
metric: TGI
endpoint_value: > 100 µM
--
compound: CCCCCCCCCC1CC(=O)Oc2cccc(O)c21 (stereo unspecified)
metric: TGI
endpoint_value: 38.1 µM
--
compound: O=C1N=C(c2c(-c3[nH]c(=O)c4ccc(Br)cc4c3O)c(O)c3ccccc3c2O)C(=O)c2cc(Br)ccc21
metric: TGI
endpoint_value: 0.77 µM

----------
Test system: RXF 393 renal
assay_explanation: NCI tumour cell line growth inhibition, 48 h; in the data active = GI50 below about 0.43 µM; inactive = the rest
Possible outcomes: YES = active, NO = inactive

compound: CCCCCC/C=C\CCCCCCCCCc1cc(O)cc(OC)c1O
assigned_category: YES
//
compound: Cc1c(-c2ccc(O)c(O)c2)oc(=O)c2c(O)cc(O)cc12
assigned_category: NO
//
compound: O=C(N/N=C\c1cc(Cl)ccc1O)c1ccncc1
assigned_category: NO
//
compound: CCN(CC)CCCNc1ccc2ncn3c4ccc(O)cc4c(=O)c1c23
assigned_category: NO
//
compound: Cc1ccncc1N1CCN(c2ccnc(Cl)c2)C1=O
assigned_category: NO
//
compound: NCCOc1ncccc1/C=C1\C2C=CC=CC2C2C=CC(F)=CC12 (centres undefined)
assigned_category: NO
//
compound: CCCCCCC/C(=N\N=C(N)N)c1ccc(O)cc1
assigned_category: NO
//
compound: c1cc2ccc3cc2cc1CNCCN1CCNCc2ccc4ccc(cc4c2)CNCCN(CCNC3)CCNCc2ccc3ccc(cc3c2)CNCC1
assigned_category: NO
//
compound: CCC(=O)Oc1cc(/C=C/C(=O)O[C@H]2C[C@H]3CN4CCc5c([nH]c6cc(OC)ccc56)[C@@H]4C[C@@H]3[C@@H](C(=O)OC)[C@@H]2OC)ccc1OC
assigned_category: NO
//
compound: O=c1cc(N2CCOCC2)oc2c(-c3ccc4c(c3)OCCO4)csc12
assigned_category: YES
//
compound: COc1ccc(C(=O)/C=C/c2ccc(OCc3ccc(Cl)cc3)cc2)cc1OC
assigned_category: NO
//
compound: O=C(CC1(O)C(=O)N(Cc2ccccc2)c2ccc(Br)cc21)c1ccc(C(=O)NCC2CCC3(CC2)OOC2(CCCCC2)OO3)cc1 (centres undefined)
assigned_category: NO
//
compound: COC(=O)N1c2ccc3c(nc(Cc4ccccc4)n3[C@H]3CCC[C@H](C(=O)O)C3)c2CC[C@@H]1C
assigned_category: NO
//
compound: Nc1ncc2ccc3c(ccn3C3CC(O)C(CO)O3)c2n1 (centres undefined)
assigned_category: NO

----------
System: OVCAR-3 ovarian
assay_explanation: NCI tumour cell line growth inhibition, 48 h

molecule: Cc1ccncc1N1CCN(c2ccnc(Cl)c2)C1=O
bound_type: >
TGI / µM: 100
--
molecule: COc1ccc(NC(=O)c2sc3nc(C)c(C(=O)/C=C/c4ccccc4)cc3c2N)cc1
bound_type: =
TGI / µM: 2.73
--
molecule: CC(C)=CCc1ccc2[nH]c3c(c2c1)C(=O)C(=O)C(C)=C3C(O)C(C)O (stereo unspecified)
bound_type: =
TGI / µM: 13
--
molecule: CCN(CC)CCCNc1ccc2ncn3c4ccc(O)cc4c(=O)c1c23
bound_type: =
TGI / µM: 22.2
--
molecule: O=c1[nH]c2ccccc2nc1CBr
bound_type: =
TGI / µM: 4.22
--
molecule: N#Cc1c(-c2ccc(Cl)cc2)cc(-c2cc(O)ccc2O)nc1N
bound_type: =
TGI / µM: 1.51

----------
Tested on: A549 NSCLC
assay_explanation: NCI tumour cell line growth inhibition, 48 h

compound: c1ccc(C[n+]2ccc3c(c2)CCCC3)cc1
assayed_target: A549 NSCLC
TGI: > 100 µM

compound: Cn1cc(-c2ccc(-c3cn(C)c4ncccc34)[nH]2)c2cccnc21
assayed_target: A549 NSCLC
TGI: > 100 µM

compound: CC(=O)CC1(O)C(=O)c2c(Br)sc(Br)c2C1=O
assayed_target: A549 NSCLC
TGI: > 100 µM

compound: CCOC(=O)C1(C(C)=O)OC(=O)c2cnccc21 (stereo not drawn)
assayed_target: A549 NSCLC
TGI: > 100 µM

compound: C[n+]1cn(-c2ccc([N+](=O)[O-])cn2)c2ccccc21
assayed_target: A549 NSCLC
TGI: > 100 µM

compound: N#Cc1c(-c2ccc(Cl)cc2)cc(-c2cc(O)ccc2O)nc1N
assayed_target: A549 NSCLC
TGI: 13.8 µM

compound: CC(C)(C)c1ccc2c(c1)S(=O)(=O)Nc1cccc(c1)NS(=O)(=O)c1cc(C(C)(C)C)ccc1OCCOCCO2
assayed_target: A549 NSCLC
TGI: > 100 µM

compound: C[C@@H]1CCC2[C@@H](C)[C@@H](OC3CCC(O)CC3)OC3O[C@@]4(C)CCC1[C@]32OO4 (stereo partly drawn)
assayed_target: A549 NSCLC
TGI: > 100 µM

compound: C=CCCCC(=O)CCC(=O)OCC1O[C@@H](O[C@@H]2C(O)[C@@H](OC(C)=O)C(C)O[C@H]2O[C@H](CC=C)CCCCC)C(O)[C@@H](OC(=O)/C(C)=C/C)[C@@H]1OC(=O)/C=C/c1ccccc1 (stereo partly drawn)
assayed_target: A549 NSCLC
TGI: > 50 µM

compound: O=c1c2sc3ccccc3c2nnn1-c1ccc(F)c(Cl)c1
assayed_target: A549 NSCLC
TGI: > 100 µM

compound: COC(=O)/C(C#N)=C1\CCC(Nc2cccc(C(F)(F)F)c2)N1C (stereo not drawn)
assayed_target: A549 NSCLC
TGI: > 100 µM

compound: O=C(c1c(Cl)cc(Cl)cc1Cl)N(Cc1cccnc1)C(=S)N(Cc1cccnc1)C(=O)c1c(Cl)cc(Cl)cc1Cl
assayed_target: A549 NSCLC
TGI: > 100 µM

compound: Cc1ccc(S(=O)(=O)Oc2ccccc2-c2ccccc2)cc1
assayed_target: A549 NSCLC
TGI: > 100 µM
